Origin of the recorded values: patent US20190343846A1

- Experiment Summary: Solubility of kinase inhibitors in aqueous γ-cyclodextrin media
- Format: physicochemical
- Condition Label: aqueous with cosolvent or surfactant or cyclodextrin, thermodynamic from solid; aqueous solution with 8 % w/v γ-cyclodextrin and tyloxapol (1% w/v); read-out: Solubility (mg/mL) Tyloxapol
Property: solubility (mg/mL)
Please respond with the number in mg/mL and leave the unit unwritten.

### Prompt # solubility lookup, item CC1(C)CNc2cc(NC(=O)c3cccnc3NCc3ccncc3)ccc21
### Response 0.04

###

Parameter: solubility. Scope: all listed entries.
- Experiment Summary: Solubility of kinase inhibitors in pure water (S0) from phase-solubility profiles
- Type: physicochemical
- Condition Label: 25 °C, water, thermodynamic from solid, read-out: S0 (mg/mL), solubility in pure water
Quick reminder: number only, in mg/mL, skip the unit.

- Sample Smiles: "CNC(=O)c1cc(Oc2ccc(NC(=O)Nc3ccc(Cl)c(C(F)(F)F)c3)c(F)c2)ccn1"
  Property: "solubility"
  Quantitative Readout: 0.0001
- Sample Smiles: "Cc1ccc(Nc2nccc(N(C)c3ccc4c(C)n(C)nc4c3)n2)cc1S(N)(=O)=O"
  Property: "solubility"
  Quantitative Readout: 0.0006
- Sample Smiles: "CC1(C)CNc2cc(NC(=O)c3cccnc3NCc3ccncc3)ccc21"
  Property: "solubility"
  Quantitative Readout: 0.014
- Sample Smiles: "COc1cc2c(Oc3ccc4[nH]c(C)cc4c3F)ncnc2cc1OCCCN1CCCC1"
  Property: "solubility"
  Quantitative Readout: 1.2

Kindly review the next molecule as well.
### Prompt Fill in the blank: the reported solubility of CNC(=O)c1ccccc1Sc1ccc2c(/C=C/c3ccccn3)n[nH]c2c1 is ____.
### Response 0.0004
